- target-under-test: T1, CYP2C8 (Homo sapiens, UniProt P10632)
- T1 sequence (P10632 1-490): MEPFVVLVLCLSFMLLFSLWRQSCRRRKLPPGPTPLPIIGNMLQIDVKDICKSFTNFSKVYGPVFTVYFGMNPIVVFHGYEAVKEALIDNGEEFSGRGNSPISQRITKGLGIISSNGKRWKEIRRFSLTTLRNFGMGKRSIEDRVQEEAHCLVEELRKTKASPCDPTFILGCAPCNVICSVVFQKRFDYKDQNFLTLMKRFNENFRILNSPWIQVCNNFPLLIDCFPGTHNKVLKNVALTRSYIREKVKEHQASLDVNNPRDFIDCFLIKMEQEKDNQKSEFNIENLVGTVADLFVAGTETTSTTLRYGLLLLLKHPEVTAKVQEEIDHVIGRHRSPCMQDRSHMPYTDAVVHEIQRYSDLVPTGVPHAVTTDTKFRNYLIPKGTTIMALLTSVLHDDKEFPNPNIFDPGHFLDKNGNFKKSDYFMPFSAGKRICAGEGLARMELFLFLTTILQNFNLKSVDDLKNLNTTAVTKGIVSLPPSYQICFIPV
- protocol: Metabolic stability in recombinant human CYP2C8 metabolic enzyme
- Assay type: in vitro ADME
- reported-conditions: human, recombinant CYP2C8, pH 7.4; CYP subtype 2C8, test concentration 2 (M); read-out: Half-life T1/2
measurement-kind: half-life at 2 µM (h)
Quick reminder: number only, in h, skip the unit.

Below, each entry is followed by its recorded half-life at 2 µM result.
compound	half-life at 2 µM, h
CN(C)CCC=C1c2ccccc2CCc2ccccc21 [Amitriptyline, reference compound]	0.177
[2H]c1c(Oc2c(Cl)cc(-n3nc(C#N)c(=O)[nH]c3=O)cc2Cl)n[nH]c(=O)c1C(C([2H])([2H])[2H])C([2H])([2H])[2H]	1.83
[2H]C([2H])([2H])C([2H])(c1cc(Oc2c(Cl)cc(-n3nc(C#N)c(=O)[nH]c3=O)cc2Cl)n[nH]c1=O)C([2H])([2H])[2H]	1.51
[2H]c1c(Oc2c(Cl)cc(-n3nc(C#N)c(=O)[nH]c3=O)cc2Cl)n[nH]c(=O)c1C([2H])(C([2H])([2H])[2H])C([2H])([2H])[2H]	1.6
CC(C)c1cc(Oc2c(Cl)cc(-n3nc(C#N)c(=O)[nH]c3=O)cc2Cl)n[nH]c1=O [MGL-3196, reference compound]	1.04

Please turn your attention to the following entry.
Report measured half-life at 2 µM; entry is `[2H]C([2H])([2H])C(c1cc(Oc2c(Cl)cc(-n3nc(C#N)c(=O)[nH]c3=O)cc2Cl)n[nH]c1=O)C([2H])([2H])[2H]`
1.21

###

Reported Tmax values follow for various compounds
- protocol: Pharmacokinetics in mice
- Type: in vivo
- reported-conditions: ICR, mouse, plasma, 5 mg/kg, po. 5 mpk, read-out: Peak time Tmax
Use h as the unit, but write only the number.

Some solved cases for reference:
compound	Tmax (h)
CC(C)c1cc(Oc2c(Cl)cc(-n3nc(C#N)c(=O)[nH]c3=O)cc2Cl)n[nH]c1=O [MGL-3196, reference compound]	2
[2H]c1c(Oc2c(Cl)cc(-n3nc(C#N)c(=O)[nH]c3=O)cc2Cl)n[nH]c(=O)c1C([2H])(C([2H])([2H])[2H])C([2H])([2H])[2H]	4

Give the reported value of Tmax for this record: [2H]C([2H])([2H])C(C)c1cc(Oc2c(Cl)cc(-n3nc(C#N)c(=O)[nH]c3=O)cc2Cl)n[nH]c1=O (stereo not drawn)
4

Input `[2H]C([2H])([2H])C([2H])(c1cc(Oc2c(Cl)cc(-n3nc(C#N)c(=O)[nH]c3=O)cc2Cl)n[nH]c1=O)C([2H])([2H])[2H]` , output reported Tmax.
4

Please supply the value of reported Tmax for the item `[2H]C([2H])([2H])C(c1cc(Oc2c(Cl)cc(-n3nc(C#N)c(=O)[nH]c3=O)cc2Cl)n[nH]c1=O)C([2H])([2H])[2H]`
2

Please give the documented Tmax of `[2H]c1c(Oc2c(Cl)cc(-n3nc(C#N)c(=O)[nH]c3=O)cc2Cl)n[nH]c(=O)c1C(C([2H])([2H])[2H])C([2H])([2H])[2H]`
4

Source: patent US20210292304A1
